Below, each entry is listed alongside its reported protein stability index.
B1: SCNN1D (parent)
chain: IRVMVHGRNHTPFLGHHSFSVRPG

variants of: B1; experiment: protein stability index of a GFP-peptide fusion (GPS, HEK-293T) (PSI 1-6); higher = more stable; details: c terminus: a fixed tail appended;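 further: lentivirally expressed fusions sorted by FACS into six bins by GFP to DsRed ratio, PSI derived from sequencing read proportions per bin multiplied by bin number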
Assay Endpoint: protein stability index

* V3L | 2.11
* F19T | 2.35
* H6Y | 2.35
* R2P | 1.76
* V3F | 1.93
* V3K | 3.58
* S18W | 4.89
* M4W | 2.32
* I1Q | 3
* S18I | 5.22
* P23Q | 1.64
* V3T | 2.2
* V5N | 1.66
* G15E | 4.06
* L14Q | 2.67
* F19D | 1.53
* R2N | 2.13
* M4K | 1.72
* G15V | 4.3
* L14E | 1.8
* P23S | 2.45
* T11Y | 3.8
* L14Y | 2.42
* G7E | 2.05
* H6Q | 3.67
* L14H | 2.23
* M4N | 2.92
* R8H | 3.06
* R2D | 2.76
* V21N | 1.49
* H10C | 2.19
* P23W | 1.89
* V3S | 2.13
* R22F | 2.77
* V5M | 3.81
* V5P | 2.12
* G7C | 1.7
* F19K | 1.77
* I1N | 2.85
* V21F | 2.91
* H6P | 2.34
* S20I | 2.92
* H10M | 2.15
* R2L | 2.6
* H17E | 1.51
* I1K | 2.21
* I1E | 2.04
* S18R | 4.09
* H16L | 3.83
* I1M | 1.89
* H17P | 2.38
* S18P | 2.79
* P12H | 1.48
* P12I | 3.72
* S18D | 2.01
* F19Q | 1.77
* V21E | 1.41
* V3Y | 2.43
* G7M | 2.97
* V3R | 2.13
* G7S | 1.72
* G24H | 1.84
* V5G | 2.89
* V5H | 2.32
* I1R | 3.65
* F19G | 1.52
* M4G | 1.5
* G24I | 2.44
* H10L | 3.2
* N9C | 1.89
* F19P | 1.01
* N9V | 3.7
* V5T | 1.89
* F19N | 1.09
* V3D | 2.17
* F13Y | 2.77
* F13A | 4.08
* V21S | 1.87
* T11F | 2.59
* G15T | 1.88
* F19M | 1.87
* V21L | 2.48
* M4P | 3.2
* T11Q | 2.44
* S20N | 1.84
* V3W | 1.6
* H6T | 2.35
* P23K | 1.44
* V5A | 2.48
* G24N | 1.56
* R2T | 1.51
